- procedure-details: In vitro EDTA challenge study
- Format: physicochemical
- recorded-conditions: EDTA 100-fold, pH 5.0, 37 C, 7 d
Record form. Attribute: % Intact of 89Zr-complexes. Fill in for each entry.
Numbers only, in %.

{"compound": "O=P1(O)CN2CCN3CCN4CCN(CC2)CP(=O)(O)[O][89Zr]([O]1)([O]P(=O)(O)C3)[O]P(=O)(O)C4 [89Zr-DOTP]", "% Intact of 89Zr-complexes [%]": 56.5}
{"compound": "O=C1CN2CCN3CCN4CCN(CC2)CC(=O)[O][89Zr]([O]1)([O]C(=O)C3)[O]C(=O)C4 [89Zr-DOTA]", "% Intact of 89Zr-complexes [%]": 100}
{"compound": "CC(=O)N1CCCCCNC(=O)CCC(=O)N2CCCCCNC(=O)CCC(=O)N(CCCCCN)[O][89Zr+]([O]1)[O]2 [89Zr-DFO, reference compound]", "% Intact of 89Zr-complexes [%]": 3.6}

// moving on: another record for % Intact of 89Zr-complexes
IN: Recall and state the measured % Intact of 89Zr-complexes for NC(=O)CN1CCN(CC(N)=O)CCN(CC(N)=O)CCN(CC(N)=O)CC1.[89Zr+4] [89Zr-DOTAM] .
OUT: 42.3

###

- procedure-details: In vitro EDTA challenge study
- Format: physicochemical
- recorded-conditions: EDTA 500-fold, pH 7.0, 37 C, 5 d
reported-metric: % Intact of 89Zr-complexes (%)
Give bare numbers, in %.

These solved cases illustrate the format of a correct answer.
{"compound": "NC(=O)CN1CCN(CC(N)=O)CCN(CC(N)=O)CCN(CC(N)=O)CC1.[89Zr+4] [89Zr-DOTAM]", "unit": "%", "% Intact of 89Zr-complexes": 66.6}
{"compound": "O=C1CN2CCN3CCN4CCN(CC2)CC(=O)[O][89Zr]([O]1)([O]C(=O)C3)[O]C(=O)C4 [89Zr-DOTA]", "unit": "%", "% Intact of 89Zr-complexes": 100}
{"compound": "CC(=O)N1CCCCCNC(=O)CCC(=O)N2CCCCCNC(=O)CCC(=O)N(CCCCCN)[O][89Zr+]([O]1)[O]2 [89Zr-DFO, reference compound]", "unit": "%", "% Intact of 89Zr-complexes": 30.4}

# context switch: different compound, same % Intact of 89Zr-complexes
IN: For the compound O=P1(O)CN2CCN3CCN4CCN(CC2)CP(=O)(O)[O][89Zr]([O]1)([O]P(=O)(O)C3)[O]P(=O)(O)C4 [89Zr-DOTP] , give its reported % Intact of 89Zr-complexes.
OUT: 91.4

###

- procedure-details: In vitro metal competition study
- Assay type: physicochemical
- recorded-conditions: Ga3+, PBS pH 7.4, 37 C, 1 d
reported-metric: % Intact of 89Zr-complexes (%)
Numbers only, in %.

Recorded results for 3 compounds are shown here.
{"compound": "O=C1CN2CCN3CCN4CCN(CC2)CC(=O)[O][89Zr]([O]1)([O]C(=O)C3)[O]C(=O)C4 [89Zr-DOTA]", "unit": "%", "% Intact of 89Zr-complexes": 100}
{"compound": "CC(=O)N1CCCCCNC(=O)CCC(=O)N2CCCCCNC(=O)CCC(=O)N(CCCCCN)[O][89Zr+]([O]1)[O]2 [89Zr-DFO, reference compound]", "unit": "%", "% Intact of 89Zr-complexes": 93.4}
{"compound": "NC(=O)CN1CCN(CC(N)=O)CCN(CC(N)=O)CCN(CC(N)=O)CC1.[89Zr+4] [89Zr-DOTAM]", "unit": "%", "% Intact of 89Zr-complexes": 87.9}

Attention now shifts to the item below.
IN: State its % Intact of 89Zr-complexes for this compound: O=P1(O)CN2CCN3CCN4CCN(CC2)CP(=O)(O)[O][89Zr]([O]1)([O]P(=O)(O)C3)[O]P(=O)(O)C4 [89Zr-DOTP]
OUT: 98.2

###

- procedure-details: In vitro EDTA challenge study
- Type: physicochemical
- recorded-conditions: EDTA 500-fold, pH 7.0, 37 C, 3 d
reported-metric: % Intact of 89Zr-complexes
Field: value (include unit after the number)

In the examples that follow, each entry is paired with its recorded % Intact of 89Zr-complexes.
{"compound": "O=P1(O)CN2CCN3CCN4CCN(CC2)CP(=O)(O)[O][89Zr]([O]1)([O]P(=O)(O)C3)[O]P(=O)(O)C4 [89Zr-DOTP]", "% Intact of 89Zr-complexes": "94.9 ± 1.1%"}
{"compound": "NC(=O)CN1CCN(CC(N)=O)CCN(CC(N)=O)CCN(CC(N)=O)CC1.[89Zr+4] [89Zr-DOTAM]", "% Intact of 89Zr-complexes": "77.5 ± 1.4%"}
{"compound": "CC(=O)N1CCCCCNC(=O)CCC(=O)N2CCCCCNC(=O)CCC(=O)N(CCCCCN)[O][89Zr+]([O]1)[O]2 [89Zr-DFO, reference compound]", "% Intact of 89Zr-complexes": "31.8 ± 1.1%"}

Attention now shifts to the item below.
IN: Consider the compound O=C1CN2CCN3CCN4CCN(CC2)CC(=O)[O][89Zr]([O]1)([O]C(=O)C3)[O]C(=O)C4 [89Zr-DOTA] and give its recorded % Intact of 89Zr-complexes.
OUT: 100%

###

- procedure-details: In vitro metal competition study
- Assay type: physicochemical
- recorded-conditions: Co2+, PBS pH 7.4, 37 C, 1 d
reported-metric: % Intact of 89Zr-complexes (%)
Give bare numbers, in %.

Study these solved cases before continuing.
{"compound": "NC(=O)CN1CCN(CC(N)=O)CCN(CC(N)=O)CCN(CC(N)=O)CC1.[89Zr+4] [89Zr-DOTAM]", "unit": "%", "% Intact of 89Zr-complexes": 88.6}
{"compound": "O=P1(O)CN2CCN3CCN4CCN(CC2)CP(=O)(O)[O][89Zr]([O]1)([O]P(=O)(O)C3)[O]P(=O)(O)C4 [89Zr-DOTP]", "unit": "%", "% Intact of 89Zr-complexes": 97.2}
{"compound": "CC(=O)N1CCCCCNC(=O)CCC(=O)N2CCCCCNC(=O)CCC(=O)N(CCCCCN)[O][89Zr+]([O]1)[O]2 [89Zr-DFO, reference compound]", "unit": "%", "% Intact of 89Zr-complexes": 98.3}

IN: Provide one value: measured % Intact of 89Zr-complexes of O=C1CN2CCN3CCN4CCN(CC2)CC(=O)[O][89Zr]([O]1)([O]C(=O)C3)[O]C(=O)C4 [89Zr-DOTA]
OUT: 100

###

- procedure-details: In vitro metal competition study
- Type: physicochemical
- recorded-conditions: Co2+, PBS pH 7.4, 37 C, 7 d
- Experimental: In vitro Metal Competition study. To a solution of metal cations [iron (III) chloride, cobalt (II) chloride, zinc (II) chloride, copper (II) chloride, magnesium (II) chloride, gallium (III) nitrate, gadolinium (III) chloride] (1 mM, 200 µL), was added 89Zr-labeled complex (0.1 mM, 10 µL, 80 μCi, 2.96 MBq) in PBS, pH 7.4. […] Dissociation of 89Zr from 89Zr-complexes was monitored by radio-TLC at 2 h, 1 d, 4 d and 7 d time point. […]
reported-metric: % Intact of 89Zr-complexes (%)
Give bare numbers, in %.

{"compound": "O=P1(O)CN2CCN3CCN4CCN(CC2)CP(=O)(O)[O][89Zr]([O]1)([O]P(=O)(O)C3)[O]P(=O)(O)C4 [89Zr-DOTP]", "endpoint-result": 93.5}
{"compound": "O=C1CN2CCN3CCN4CCN(CC2)CC(=O)[O][89Zr]([O]1)([O]C(=O)C3)[O]C(=O)C4 [89Zr-DOTA]", "endpoint-result": 100}
{"compound": "NC(=O)CN1CCN(CC(N)=O)CCN(CC(N)=O)CCN(CC(N)=O)CC1.[89Zr+4] [89Zr-DOTAM]", "endpoint-result": 80.9}

IN: Give the reported % Intact of 89Zr-complexes for this compound. CC(=O)N1CCCCCNC(=O)CCC(=O)N2CCCCCNC(=O)CCC(=O)N(CCCCCN)[O][89Zr+]([O]1)[O]2 [89Zr-DFO, reference compound]
OUT: 95.4

###

- procedure-details: In vitro metal competition study
- Type: physicochemical
- recorded-conditions: Co2+, PBS pH 7.4, 37 C, 2 h
reported-metric: % Intact of 89Zr-complexes

Check out these entries, answers already filled in.
{"compound": "O=C1CN2CCN3CCN4CCN(CC2)CC(=O)[O][89Zr]([O]1)([O]C(=O)C3)[O]C(=O)C4 [89Zr-DOTA]", "endpoint-result": "100%"}
{"compound": "CC(=O)N1CCCCCNC(=O)CCC(=O)N2CCCCCNC(=O)CCC(=O)N(CCCCCN)[O][89Zr+]([O]1)[O]2 [89Zr-DFO, reference compound]", "endpoint-result": "99.2 ± 0.2%"}
{"compound": "NC(=O)CN1CCN(CC(N)=O)CCN(CC(N)=O)CCN(CC(N)=O)CC1.[89Zr+4] [89Zr-DOTAM]", "endpoint-result": "92.6 ± 0.5%"}

In the following, a different compound is considered.
IN: Read off the recorded % Intact of 89Zr-complexes for O=P1(O)CN2CCN3CCN4CCN(CC2)CP(=O)(O)[O][89Zr]([O]1)([O]P(=O)(O)C3)[O]P(=O)(O)C4 [89Zr-DOTP]
OUT: 99.1 ± 0.2%
